# System: Cryptococcus neoformans
# experimental context: Concentration 32 ug.mL-1; ASSAY_TEST Inhibition of Fungal Growth; detection method Resazurin; Absorption (OD600-OD570); plate type 384well; NBS; CORNING #3640
# Description: Antifungal activity against Cryptococcus neoformans H99 ATCC 208821 (CO-ADD:FG_002); MIC in YNB media using NBS plates, by Resazurin OD(600-570)
Results with a measured potency or affinity are listed apart.
experimental endpoint: Inhibition (%)
One number for each entry, in %.

Quote Inhibition reported for Cc1ccc(NC(=O)Cn2nc3ccc(SC(C)(C)C)nn3c2=O)c(Cl)c1 please. -20.56

Quote Inhibition reported for CCOc1ccc(N(Cc2ccc(F)cc2)S(=O)(=O)c2ccc3nncn3c2)cc1 please. -3.72

Quote Inhibition reported for N#Cc1cccc(NC(=O)CSc2nnc3c4cc(-c5ccccc5)nn4ccn23)c1 please. -14.96

For each entry beneath this line, provide reported Inhibition.
1. COc1ccc(C(=O)CSc2nnc3c(=O)n(-c4ccc(F)c(F)c4)ccn23)cc1OC
2. CCCc1nnc2c(=O)n(CC(=O)N3CCCc4ccccc43)c3ccccc3n12
3. Cc1ccc(Cn2c(=O)c3ccc(C(=O)NC4CCCC4)cc3n3c(=O)n(CC#N)nc23)cc1
4. CCCCN(C)c1ccc2nnc(CCc3nc(-c4cccc(Br)c4)no3)n2n1
5. CCc1ccc(N(Cc2ccccc2)S(=O)(=O)c2cccn3c(CC)nnc23)cc1
6. COc1ccc(NC(=O)CSc2nnc3c(=O)n(-c4ccccc4OC)ccn23)cc1Cl

[-3.67, -21.26, -4.65, -17.7, -8.52, -12.03]

For each entry beneath this line, provide reported Inhibition.
1. CCc1nnc2ccc(S(=O)(=O)N(Cc3cccc(F)c3)c3ccc(OC)cc3)cn12
2. Cc1ccc(-c2ccc3nn(CC(=O)Nc4ccc(Cl)c(C(F)(F)F)c4)c(=O)n3n2)cc1C
3. Cc1ccccc1NC(=O)Cn1nc2c(SC3CCCCC3)nccn2c1=O

1. -10.67
2. -13.03
3. -26.02

For each entry beneath this line, provide reported Inhibition.
1. CCCN(C)c1nccn2c(=O)n(CC(=O)Nc3cccc(Br)c3)nc12
2. Cc1ccc(S(=O)(=O)Nc2ccc3nnc(-c4ccccc4)n3n2)cc1C
3. COc1ccc(CN(c2ccc(F)cc2)S(=O)(=O)c2cccn3cnnc23)cc1F

[-9.25, -4.99, -9.79]

For each entry beneath this line, provide reported Inhibition.
1. CCc1ccc(Cn2c(=O)c3sccc3n3c(=O)n(Cc4c(F)cccc4Cl)nc23)cc1
2. COc1ccc(Cl)cc1NC(=O)Cn1nc2c(Sc3ccc(C)cc3C)nccn2c1=O

1. -25.59
2. -21.72

====

Please respond with reported Inhibition for every item in the list.
# Tested on: Candida albicans
# experimental context: Concentration 32 ug.mL-1; ASSAY_TEST Inhibition of Fungal Growth; detection method Absorption (OD530)
# Description: Antifungal activity against Candida albicans ATCC 90028 (CO-ADD:FG_001); MIC in YNB media using NBS plates, by OD630
Measured potencies and affinities stand elsewhere.
Answers are plain numbers, in %.

// known answers, use as guide
Quote Inhibition reported for CCCCN(C)c1ccc2nnc(CCc3nc(-c4ccc(C(F)(F)F)cc4)no3)n2n1 please. 2.75

Quote Inhibition reported for COc1cc(OC)c(NC(=O)Cn2nc3c(SC4CCCCC4)nccn3c2=O)cc1Cl please. 7.28

Quote Inhibition reported for Cc1nnc2ccc(S(=O)(=O)N(Cc3cccc(F)c3)c3ccc(F)c(F)c3)cn12 please. 1.97

Quote Inhibition reported for Cc1ccc(NC(=O)Cn2nc3ccc(-c4ccccc4)nn3c2=O)cc1 please. 16.23

Quote Inhibition reported for Cc1nnc2c(=O)n(CC(=O)Nc3cccc(Cl)c3)c3ccccc3n12 please. -0.29

Quote Inhibition reported for COc1ccc(NC(=O)Cn2nc3c(N4CC(C)CC(C)C4)nccn3c2=O)c(OC)c1 (stereo not given) please. 1.51

For each entry beneath this line, provide reported Inhibition.
1. Cc1ccc(-c2ccc3nn(Cc4c(F)cccc4Cl)c(=O)n3n2)cc1
2. O=C(Cn1nc2nc(Nc3ccc(F)cc3)ccn2c1=O)N1CCCc2ccccc21
3. Cc1cccc(NC(=O)Cn2nc3c4cc(-c5ccc(Cl)cc5)nn4ccn3c2=O)c1
4. Cc1cc(C)cc(N(Cc2cc(F)cc(F)c2)S(=O)(=O)c2cccn3c(C)nnc23)c1

1. -0.59
2. 2.56
3. 16.29
4. 0.35
